system: SARS-CoV-2 PsVs; experiment: microbe, parasite or virus in culture; format: cell-based; conditions: Severe acute respiratory syndrome coronavirus 2, Vero C1008, 24 h, read-out: % Infection rate at 500 nM
Form field: activity at 0.5 µM (one value per entry).
Answer in %, number only, no unit symbol.

CN1CCN(c2ccc3nc(C[C@H](NC(=O)c4cccc(Cl)c4)C(=O)NC4(C#N)CC4)oc3c2)C(=O)C1 ... 99
N#CCNC(=O)[C@H](Cc1nc2ccccc2o1)NC(=O)c1cc(C2CC2)nn1C1CC1 ... 79
N#Cc1cccc2nc(C[C@H](NC(=O)c3cccc(Cl)c3)C(=O)NC3(C#N)CC3)oc12 ... 91
CN(C)c1ccc(-c2ccc3nc(C[C@H](NC(=O)c4cc(C5(C)CC5)nn4C4CC4)C(=O)NC4(C#N)CC4)oc3c2)cn1 ... 32
N#CC1(NC(=O)[C@H](Cc2nc3ccc(C4=CCN(CC(F)F)CC4)cc3o2)NC(=O)c2cccc(Cl)c2)CC1 ... 70
N#CC1(NC(=O)[C@H](Cc2nc3ccc(F)cc3o2)NC(=O)c2cccc(Cl)c2)CC1 ... 81

Prompt: Reported activity at 0.5 µM for N#CC1(NC(=O)[C@H](Cc2nc3ccccc3o2)NC(=O)c2cn(C3CC3)nc2C(F)F)CC1 : what is it?
Response: 101

---

Form field: activity at 5 µM (one value per entry).
system: SARS-CoV-2 PsVs; test: microbe, parasite or virus in culture; assay type: cell-based; conditions: Severe acute respiratory syndrome coronavirus 2, Vero C1008, 24 h, read-out: % Infection rate at 5 uM
Answer in %, number only, no unit symbol.

Below are worked cases with known answers.
COCCN1CC=C(c2ccc3nc(C[C@H](NC(=O)c4cc(C(C)(C)C)nn4C4CC4)C(=O)NCC#N)oc3c2)CC1 [Compound 45] ... 0.02
N#CC1(NC(=O)[C@H](Cc2nc3c(Br)cccc3o2)NC(=O)c2cccc(Cl)c2)CC1 [Compound 2] ... 12
Cn1c(C[C@H](NC(=O)c2cccc(Cl)c2)C(=O)NC2(C#N)CC2)nc2ccccc21 [Compound 32] ... 95
N#CC1(NC(=O)[C@H](Cc2nc3ccc(C(F)(F)F)cc3o2)NC(=O)c2cccc(Cl)c2)CC1 [Compound 11] ... 81
Cn1nc(C(C)(C)C)cc1C(=O)N[C@@H](Cc1nc2ccccc2o1)C(=O)NC1(C#N)CC1 [Compound 13] ... 10
Cc1cc(-c2ccc3nc(C[C@H](NC(=O)c4cc(C5(C)CC5)nn4C4CC4)C(=O)NCC#N)oc3c2)ccn1 [Compound 35] ... 3.1

Now, please, on to the next compound.
Prompt: Form field: activity at 5 µM recorded for CC1(c2cc(C(=O)N[C@@H](Cc3nc4ccc(C5=CCN(CC(F)F)CC5)cc4o3)C(=O)NC3(C#N)CC3)n(C3CC3)n2)CC1 [Compound 40] with SARS-CoV-2 PsVs (enter value)
Response: 12

---

target: human CatL (Homo sapiens (Human), UniProt P07711); assay: Human Cathepsin L (CatL) enzymatic assay; type: biochemical; conditions: summary of Table 2; read-out: IC50 for inhibiting CatL
Sequence (P07711 whole entry, looked up): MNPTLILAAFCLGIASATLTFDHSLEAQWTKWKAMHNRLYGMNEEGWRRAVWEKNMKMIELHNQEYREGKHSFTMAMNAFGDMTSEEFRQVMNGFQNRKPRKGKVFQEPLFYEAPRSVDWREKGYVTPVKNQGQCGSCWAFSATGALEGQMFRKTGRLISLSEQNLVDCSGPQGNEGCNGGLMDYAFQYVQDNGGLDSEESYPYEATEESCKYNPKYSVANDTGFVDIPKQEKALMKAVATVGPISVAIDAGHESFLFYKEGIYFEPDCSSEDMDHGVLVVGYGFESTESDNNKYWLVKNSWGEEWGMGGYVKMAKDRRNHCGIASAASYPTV
pIC50: −log10 of the molar value.
readout-kind: pIC50

Below are worked cases with known answers.
CN1CCN(c2ccc3nc(C[C@H](NC(=O)c4cccc(Cl)c4)C(=O)NC4(C#N)CC4)oc3c2)CC1 ... > 8.00
N#CC1(NC(=O)[C@H](Cc2nc3cccc(Br)c3o2)NC(=O)c2cccc(Cl)c2)CC1 ... > 8.00

Prompt: Form field: pIC50 recorded for N#CCNC(=O)[C@H](Cc1nc2ccccc2o1)NC(=O)c1cc(C2CC2)nn1C1CC1 with human CatL (Homo sapiens (Human), UniProt P07711) (enter value)
Response: > 7.30

Prompt: Form field: pIC50 recorded for N#CC1(NC(=O)[C@H](Cc2nc3c(Br)cccc3o2)NC(=O)c2cccc(Cl)c2)CC1 with human CatL (Homo sapiens (Human), UniProt P07711) (enter value)
Response: > 8.00

Prompt: Form field: pIC50 recorded for N#CC1(NC(=O)[C@H](Cc2nc3cccc(Cl)c3o2)NC(=O)c2cccc(Cl)c2)CC1 with human CatL (Homo sapiens (Human), UniProt P07711) (enter value)
Response: > 8.00
